Ref: ChEMBL document CHEMBL3991601

Assay system: Tyrosine-protein kinase Yes (Homo sapiens, UniProt P07947); also: in the data inactive means no Kd found up to 30 µM
Sequence (P07947 whole entry): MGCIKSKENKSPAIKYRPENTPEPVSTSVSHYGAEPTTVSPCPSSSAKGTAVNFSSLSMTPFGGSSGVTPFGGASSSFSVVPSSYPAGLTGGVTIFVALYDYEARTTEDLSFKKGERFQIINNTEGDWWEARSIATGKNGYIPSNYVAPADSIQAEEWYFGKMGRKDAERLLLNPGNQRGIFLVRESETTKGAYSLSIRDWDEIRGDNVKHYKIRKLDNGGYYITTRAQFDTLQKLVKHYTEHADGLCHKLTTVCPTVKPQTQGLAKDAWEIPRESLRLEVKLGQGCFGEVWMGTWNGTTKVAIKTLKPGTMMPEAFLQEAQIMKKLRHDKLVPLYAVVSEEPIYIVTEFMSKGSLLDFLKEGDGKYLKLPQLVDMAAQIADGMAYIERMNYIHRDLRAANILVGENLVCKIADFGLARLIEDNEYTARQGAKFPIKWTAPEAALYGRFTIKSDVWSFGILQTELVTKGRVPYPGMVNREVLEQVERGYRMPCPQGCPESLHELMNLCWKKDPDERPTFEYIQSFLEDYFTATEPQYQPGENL
Activity calls are given as the source filed them.
Labels: 1 (yes) (active), 0 (no) (inactive)

{"Compound": "COc1cc2ncnc(Nc3ccc(F)c(Cl)c3)c2cc1NC(=O)/C=C/CN1CCCCC1 [DACOMITINIB ANHYDROUS]", "Assay system": "Tyrosine-protein kinase Yes (Homo sapiens, UniProt P07947)", "Answer label": "0 (no)"}
{"Compound": "Cc1cc(-c2cc(OC(=O)c3ccccc3)ccc2Cl)cc2nnc(Nc3ccc(OCCN4CCCC4)cc3)nc12", "Assay system": "Tyrosine-protein kinase Yes (Homo sapiens, UniProt P07947)", "Answer label": "1 (yes)"}
{"Compound": "C=CCN(/C=C1/C(=O)O[C@H](COC)[C@@]2(C)C1=C(O)C(=O)C1=C2[C@H](OC(C)=O)C[C@]2(C)C(=O)CC[C@@H]12)CC=C", "Assay system": "Tyrosine-protein kinase Yes (Homo sapiens, UniProt P07947)", "Answer label": "0 (no)"}
{"Compound": "CCN1CCN(Cc2ccc(Nc3ncc(F)c(-c4cc(F)c5nc(C)n(C(C)C)c5c4)n3)nc2)CC1", "Assay system": "Tyrosine-protein kinase Yes (Homo sapiens, UniProt P07947)", "Answer label": "0 (no)"}
{"Compound": "O=C(NC[C@H](O)CO)c1ccncc1Nc1ccc(I)cc1F", "Assay system": "Tyrosine-protein kinase Yes (Homo sapiens, UniProt P07947)", "Answer label": "0 (no)"}
{"Compound": "C[C@@H]1COC(Nc2ccc3ncnc(Nc4ccc(OCc5nccs5)c(Cl)c4)c3c2)=N1", "Assay system": "Tyrosine-protein kinase Yes (Homo sapiens, UniProt P07947)", "Answer label": "1 (yes)"}
{"Compound": "COc1ccc2c(OCc3nnc4ccc(-c5ccccc5)nn34)ccnc2c1", "Assay system": "Tyrosine-protein kinase Yes (Homo sapiens, UniProt P07947)", "Answer label": "0 (no)"}
{"Compound": "O=C(Nc1ccc(OC(F)(F)F)cc1)c1sccc1NCc1ccnc2ccccc12", "Assay system": "Tyrosine-protein kinase Yes (Homo sapiens, UniProt P07947)", "Answer label": "0 (no)"}
{"Compound": "O=S(=O)(c1cccc2cnccc12)N1CCCNCC1", "Assay system": "Tyrosine-protein kinase Yes (Homo sapiens, UniProt P07947)", "Answer label": "0 (no)"}
{"Compound": "COc1cc(Nc2ncc(F)c(Nc3ccc4c(n3)N(COP(=O)(O)O)C(=O)C(C)(C)O4)n2)cc(OC)c1OC", "Assay system": "Tyrosine-protein kinase Yes (Homo sapiens, UniProt P07947)", "Answer label": "0 (no)"}
{"Compound": "CNC(=O)c1ccc(Nc2ncc(C(F)(F)F)c(NCc3nccnc3N(C)S(C)(=O)=O)n2)cc1", "Assay system": "Tyrosine-protein kinase Yes (Homo sapiens, UniProt P07947)", "Answer label": "0 (no)"}
{"Compound": "CCc1cc2c(cc1N1CCC(N3CCOCC3)CC1)C(C)(C)c1[nH]c3cc(C#N)ccc3c1C2=O", "Assay system": "Tyrosine-protein kinase Yes (Homo sapiens, UniProt P07947)", "Answer label": "0 (no)"}
{"Compound": "Cc1c(Cn2c(C)nc3c(C(=O)O)cc(N4CCOCC4)cc32)cccc1C(F)(F)F", "Assay system": "Tyrosine-protein kinase Yes (Homo sapiens, UniProt P07947)", "Answer label": "0 (no)"}
{"Compound": "N#CCNC(=O)c1ccc(-c2ccnc(Nc3ccc(N4CCOCC4)cc3)n2)cc1", "Assay system": "Tyrosine-protein kinase Yes (Homo sapiens, UniProt P07947)", "Answer label": "0 (no)"}
{"Compound": "O=C(O)c1ccc2c(c1)nc(Nc1cccc(Cl)c1)c1ccncc12", "Assay system": "Tyrosine-protein kinase Yes (Homo sapiens, UniProt P07947)", "Answer label": "0 (no)"}
{"Compound": "COCCN1CCN(Cc2ccc(-c3n[nH]c4c3C(=O)c3c(NC(=O)NN5CCOCC5)cccc3-4)cc2)CC1", "Assay system": "Tyrosine-protein kinase Yes (Homo sapiens, UniProt P07947)", "Answer label": "0 (no)"}
